Entries annotated with measured Do 80%
Test: Dose number
Format: physicochemical
Details: IIIB-MC, 80% of maximum drug load, 45 mL digestion medium
Number only, please.

- CC(=O)N1CCN(c2ccc(OCC3COC(Cn4ccnc4)(c4ccc(Cl)cc4Cl)O3)cc2)CC1 (centres unmarked): 0.5

COc1ccc2c(c1)c(CC(=O)O)c(C)n2C(=O)c1ccc(Cl)cc1 has a reported Do 80% of 1.6

Do 80% for COC1=CC(=O)C[C@@H](C)[C@]12Oc1c(Cl)c(OC)cc(OC)c1C2=O is 2.9

Please fill in: Do 80% reported for C#C[C@]1(O)CC[C@H]2[C@@H]3CCC4=Cc5oncc5C[C@]4(C)[C@H]3CC[C@@]21C = 9.5
